Entries and their measured Kd follow.
# assayed-system: T1, GFP-9S library array, motif 4 ND N98P;D124R (synthetic construct, N98P;D124R)
# T1 chain: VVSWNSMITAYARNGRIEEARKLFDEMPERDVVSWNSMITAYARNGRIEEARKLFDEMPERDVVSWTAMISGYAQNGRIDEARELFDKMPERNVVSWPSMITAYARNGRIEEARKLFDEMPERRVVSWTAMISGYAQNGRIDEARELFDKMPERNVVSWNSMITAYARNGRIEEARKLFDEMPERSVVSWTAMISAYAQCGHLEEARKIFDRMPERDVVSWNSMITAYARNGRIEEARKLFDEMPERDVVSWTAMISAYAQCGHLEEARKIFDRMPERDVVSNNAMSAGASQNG
# procedure-text: high-throughput RNA pulldown from lysate on Ni-NTA beads; HRP: 50 mM Tris pH 8, 150 mM NaCl, 1 mM beta-mercaptoethanol, 50 ug/ml BSA, 3 ug/ml yeast RNA, 0.5% heparin; ITC and FP: Tris pH 8, 200 mM KCl, 5% glycerol; MST: 50 mM Tris pH 8, 200 mM NaCl, 1 mM DTT, BSA, heparin, 0.05% Tween 20
# condition-summary: tags: N-terminal His-eGFP; label: 5' IRDye 800CW
value-kind: Kd

- binder: "AUUAUACGUGA (ssRNA) [IR-rpoA-U]"
  value-kind: "Kd"
  observed-value: "245 nM"
- binder: "AUUAAACGUGA (ssRNA) [IR-rpoA-A]"
  value-kind: "Kd"
  observed-value: "329 nM"

These data points were gathered from paper PMC8809517.
